System: phosphorylation of Akt at Serine 473 in U87 MG cells
Experiment: pAkt AlphaScreen (U87 cell)
Format: cell-based
Settings: Homo sapiens, U-87 MG, 2 h; pAkt at Serine 473, U87 MG cells, two hours with compound
Experimental: The pAkt AlphaScreen® assay (PerkinElmer, Waltham, Mass.) determines whether there is phosphorylation of Akt at Serine 473 by recruitment of a phosphospecific antibody. This assay was performed using U87 MG cells. […] The first day of the assay, the adherent cells were trypsinized, media was added to the loose cells and cells were mixed to a homogenous mixture. 0.5 ml of the homogenous mixture was counted on the Beckman Coulter® Vi-Cell™ XR (Fullerton, Calif.). […]
MEASURE_NAME: log10(IC50) (log10 of the value in nM)
Record value = log10 of IC50 given in nM.

Below, each entry is followed by its recorded log10(IC50) result.
Cc1nc(N)cc(-c2c(Nc3ccn(C)n3)nc3ccc(-c4cccc(S(C)(=O)=O)c4)cn23)n1 [Cpd 65] ... 2.58
Cc1nc(-c2c(Nc3cccc(O)c3)nc3ccccn23)c2nc[nH]c2n1 [Cpd 2] ... 1.70
Cc1nc(N)nc(-c2c(Nc3ccn[nH]3)nc3ccc(C(N)=O)cn23)n1 [Cpd 293] ... 2.85
Cc1nc(N)nc(-c2c(Nc3cc[nH]n3)nc3ccc(-c4ccc(F)cc4C)cn23)n1 [Cpd 107] ... 2.11
Cc1nc(Nc2ccc(N3CCN(C)CC3)nn2)cc(-c2c(Nc3cc[nH]n3)nc3cccnn23)n1 [Cpd 35] ... 1.85

Value of log10(IC50) reported for the compound Cc1nc(N)cc(-n2nc(C(=O)NC3CC3)cc2Nc2cc[nH]n2)n1 [Cpd 16] is 2.54

Value of log10(IC50) reported for the compound Cc1nc(N)nc(-c2c(Nc3cc[nH]n3)nc3ccc(-c4ccc(C(=O)O)cc4C)cn23)n1 [Cpd 177] is 2.23

Value of log10(IC50) reported for the compound COCCOc1cnnc(Nc2cc(-c3c(Nc4ccc(NC(C)=O)cc4)nc4cccnn34)nc(C)n2)c1 [Cpd 53] is 1.00

Value of log10(IC50) reported for the compound CNc1cc(-c2c(Nc3cc[nH]n3)nc3cc(N4CCOCC4)cnn23)nc(C)n1 [Cpd 88] is 3.21

Value of log10(IC50) reported for the compound CC(=O)NCc1ccc(-c2ccc3nc(Nc4cc[nH]n4)c(-c4nc(C)nc(N)n4)n3c2)cc1 [Cpd 100] is 1.00

Value of log10(IC50) reported for the compound Cc1nc(N)nc(-c2c(Nc3cc[nH]n3)nc3ccc(-c4ccoc4)cn23)n1 [Cpd 105] is 1.70

Value of log10(IC50) reported for the compound Cc1nc(N)nc(-c2c(Nc3cnn(C(=O)Oc4ccccc4)c3)nc3ccccn23)n1 [Cpd 209] is 2.04

Value of log10(IC50) reported for the compound Cc1nc(N)cc(-c2c(Nc3ccn(S(C)(=O)=O)n3)nc3ccccn23)n1 [Cpd 217] is 3.07

Value of log10(IC50) reported for the compound Cc1nc(N)cc(-c2c(Nc3ccc(NC(=O)Nc4ccncc4)cc3)nc3ccccn23)n1 [Cpd 57] is 1.85

Value of log10(IC50) reported for the compound CC(=O)Nc1cc(-c2c(Nc3ccn(C)n3)nc3c(F)cccn23)nc(C)n1 [Cpd 63] is 1.70

Value of log10(IC50) reported for the compound Cc1nc(N)nc(-c2c(Nc3cc[nH]n3)nc3ccccn23)n1 [Cpd 1] is 1.30

Ref: patent US20120190666A1
